# assay info: Inhibition of TrxR in human HT-29 cells incubated for 60 mins in presence of insulin, NADPH and Trx by DTNB reagent based assay
# Format: cell-based
Exercise: for every item that follows, state its recorded IC50.
Form entry: value (µM) — number only.

Answer with reported IC50 of "C=CC(=O)O[C@H]1C=CC(=O)[C@]2(C)[C@H]3CC[C@]4(C)C([C@H](C)[C@H]5CC(C)=C(C)C(=O)O5)=C[C@H](OC(C)=O)[C@@]4(O)[C@@H]3C[C@H]3O[C@]132"
2.85

Determine its reported IC50: "CC(=O)O[C@H]1C=C([C@H](C)[C@H]2CC(C)=C(C)C(=O)O2)[C@@]2(C)CC[C@H]3[C@@H](C[C@H]4O[C@]45[C@@H](O)C=CC(=O)[C@]35C)[C@]12O"
3.35

Tell me measured IC50 for "CC(=O)O[C@H]1C=C([C@H](C)[C@H]2CC(C)=C(C)C(=O)O2)[C@@]2(C)CC[C@H]3[C@@H](C[C@H]4O[C@]45[C@@H](OC(=O)CCC(=O)N(C)C)C=CC(=O)[C@]35C)[C@]12O" please.
2.91

Give me measured IC50, please, for this compound: "O=c1c(O)c(-c2cc(O)c(O)c(O)c2)oc2cc(O)cc(O)c12"
0.72

Item "CC(=O)O[C@H]1C=C([C@H](C)[C@H]2CC(C)=C(C)C(=O)O2)[C@@]2(C)CC[C@H]3[C@@H](C[C@H]4O[C@]45[C@@H](OC(=O)/C=C/C(=O)N(C)C)C=CC(=O)[C@]35C)[C@]12O" : provide IC50
0.87

###

Task for the reader: assign each of the following molecules its reported pIC50.
# Tested on: HepG2
# assay info: Antiproliferative activity against human HepG2 cells assessed as reduction in cell viability incubated for 24 hrs by MTT assay
# Format: functional, cell-based
# setup conditions: HepG2, 24 h
Value format note: pIC50 is -log10 of concentration (mol/L); just state the number.

Return pIC50 (reported value) for this molecule: "CC(=O)O[C@H]1C=C([C@H](C)[C@H]2CC(C)=C(C)C(=O)O2)[C@@]2(C)CC[C@H]3[C@@H](C[C@H]4O[C@]45[C@@H](OC(=O)/C=C/c4ccc(F)cc4)C=CC(=O)[C@]35C)[C@]12O"
6.21

Give the reported pIC50 for this molecule. "C=CC(=O)O[C@H]1C=CC(=O)[C@]2(C)[C@H]3CC[C@]4(C)C([C@H](C)[C@H]5CC(C)=C(C)C(=O)O5)=C[C@H](OC(C)=O)[C@@]4(O)[C@@H]3C[C@H]3O[C@]132"
6.28

Retrieve pIC50 measured for CCC(C)C(NC(=O)OC(C)(C)C)C(=O)O[C@H]1C=CC(=O)[C@]2(C)[C@H]3CC[C@]4(C)C([C@H](C)[C@H]5CC(C)=C(C)C(=O)O5)=C[C@H](OC(C)=O)[C@@]4(O)[C@@H]3C[C@H]3O[C@]132 (some centres undefined) and print it.
5.78

Give reported pIC50 value for "CC(=O)O[C@H]1C=C([C@H](C)[C@H]2CC(C)=C(C)C(=O)O2)[C@@]2(C)CC[C@H]3[C@@H](C[C@H]4O[C@]45[C@@H](OC(=O)N4CCOCC4)C=CC(=O)[C@]35C)[C@]12O"
6.17

Look up and state reported pIC50 for "CCN(CC)C(=O)/C=C/C(=O)O[C@H]1C=CC(=O)[C@]2(C)[C@H]3CC[C@]4(C)C([C@H](C)[C@H]5CC(C)=C(C)C(=O)O5)=C[C@H](OC(C)=O)[C@@]4(O)[C@@H]3C[C@H]3O[C@]132"
6.51

Dear colleague, please send me the reported pIC50 for "CC(=O)O[C@H]1C=C([C@H](C)[C@H]2CC(C)=C(C)C(=O)O2)[C@@]2(C)CC[C@H]3[C@@H](C[C@H]4O[C@]45[C@@H](OC(=O)N4CCCCC4)C=CC(=O)[C@]35C)[C@]12O" when you can.
6.39

Return pIC50 for the following molecule: "CC(=O)O[C@H]1C=C([C@H](C)[C@H]2CC(C)=C(C)C(=O)O2)[C@@]2(C)CC[C@H]3[C@@H](C[C@H]4O[C@]45[C@@H](OC(=O)/C=C/c4ccccc4)C=CC(=O)[C@]35C)[C@]12O"
6.15

Give me measured pIC50, please, for this molecule: "CC(=O)O[C@H]1C=C([C@H](C)[C@H]2CC(C)=C(C)C(=O)O2)[C@@]2(C)CC[C@H]3[C@@H](C[C@H]4O[C@]45[C@@H](OC(=O)CNC(=O)OC(C)(C)C)C=CC(=O)[C@]35C)[C@]12O"
6.19

###

# Test system: HepG2
# assay info: Antiproliferative activity against human HepG2 cells assessed as reduction in cell viability incubated for 24 hrs by MTT assay
# Type: functional, cell-based
# setup conditions: HepG2, 24 h
assay metric: IC50 (nM)
The response must be a number in nM with no trailing unit.

Find the measured IC50 of "CC(=O)O[C@H]1C=C([C@H](C)[C@H]2CC(C)=C(C)C(=O)O2)[C@@]2(C)CC[C@H]3[C@@H](C[C@H]4O[C@]45[C@@H](OC(=O)/C=C/c4cccc(C(F)(F)F)c4)C=CC(=O)[C@]35C)[C@]12O" with HepG2 as test system.
420

Please report IC50 with HepG2 for item "CCN(C)C(=O)O[C@H]1C=CC(=O)[C@]2(C)[C@H]3CC[C@]4(C)C([C@H](C)[C@H]5CC(C)=C(C)C(=O)O5)=C[C@H](OC(C)=O)[C@@]4(O)[C@@H]3C[C@H]3O[C@]132" .
2370

Fill: IC50 (HepG2) for this compound "CC(=O)O[C@H]1C=C([C@H](C)[C@H]2CC(C)=C(C)C(=O)O2)[C@@]2(C)CC[C@H]3[C@@H](C[C@H]4O[C@]45[C@@H](O)C=CC(=O)[C@]35C)[C@]12O"
2850

Given "CC(=O)O[C@H]1C=C([C@H](C)[C@H]2CC(C)=C(C)C(=O)O2)[C@@]2(C)CC[C@H]3[C@@H](C[C@H]4O[C@]45[C@@H](O[Si](C)(C)C(C)(C)C)C=CC(=O)[C@]35C)[C@]12O" , report its IC50 on HepG2.
3010

Retrieve IC50 on HepG2; query "C/C=C/C(=O)O[C@H]1C=CC(=O)[C@]2(C)[C@H]3CC[C@]4(C)C([C@H](C)[C@H]5CC(C)=C(C)C(=O)O5)=C[C@H](OC(C)=O)[C@@]4(O)[C@@H]3C[C@H]3O[C@]132"
300

Fill in IC50 for "CC(=O)O[C@H]1C=C([C@H](C)[C@H]2CC(C)=C(C)C(=O)O2)[C@@]2(C)CC[C@H]3[C@@H](C[C@H]4O[C@]45[C@@H](OC(=O)/C=C/C(=O)N(C(C)C)C(C)C)C=CC(=O)[C@]35C)[C@]12O" tested with HepG2.
360

With HepG2 as the test system, provide measured IC50 for this compound: "CC(=O)O[C@H]1C=C([C@H](C)[C@H]2CC(C)=C(C)C(=O)O2)[C@@]2(C)CC[C@H]3[C@@H](C[C@H]4O[C@]45[C@@H](OC(=O)/C=C/c4ccco4)C=CC(=O)[C@]35C)[C@]12O"
310

Give the observed IC50 of "CC(=O)O[C@H]1[C@@H]2O[C@]2([C@H](C)[C@H]2CC(C)=C(C)C(=O)O2)[C@@]2(C)CC[C@H]3[C@@H](C[C@H]4O[C@]45[C@@H](O)C=CC(=O)[C@]35C)[C@]12O" for HepG2.
4660

###

# Tested on: HT-29
# assay info: Antiproliferative activity against human HT-29 cells assessed as reduction in cell viability incubated for 24 hrs by MTT assay
# Format: functional, cell-based
# setup conditions: HT-29, 24 h
Please provide measured log10 IC50 for the entries that follow.
Hey, these are logged values: log10 of IC50, µM being the unit before logging.

Read the entry "CCC(=O)O[C@H]1C=CC(=O)[C@]2(C)[C@H]3CC[C@]4(C)C([C@H](C)[C@H]5CC(C)=C(C)C(=O)O5)=C[C@H](OC(C)=O)[C@@]4(O)[C@@H]3C[C@H]3O[C@]132" and write its reported log10 IC50.
0.03

Give the reported log10 IC50 for this compound. CC(=O)O[C@H]1C=C([C@H](C)[C@H]2CC(C)=C(C)C(=O)O2)[C@@]2(C)CC[C@H]3[C@@H](C[C@H]4O[C@]45[C@@H](OC(=O)C(C)NC(=O)OC(C)(C)C)C=CC(=O)[C@]35C)[C@]12O (stereo partly drawn)
0.25

Return value of log10 IC50 for input "C/C=C/C=C/C(=O)O[C@H]1C=CC(=O)[C@]2(C)[C@H]3CC[C@]4(C)C([C@H](C)[C@H]5CC(C)=C(C)C(=O)O5)=C[C@H](OC(C)=O)[C@@]4(O)[C@@H]3C[C@H]3O[C@]132" , no commentary.
0.15

Look up and report measured log10 IC50 for this entry: CC(=O)O[C@H]1C=C([C@H](C)[C@H]2CC(C)=C(C)C(=O)O2)[C@@]2(C)CC[C@H]3[C@@H](C[C@H]4O[C@]45[C@@H](OC(=O)C(NC(=O)OC(C)(C)C)C(C)C)C=CC(=O)[C@]35C)[C@]12O (stereo partly drawn)
-0.10

Determine its reported log10 IC50: "CCN(CC)C(=O)O[C@H]1C=CC(=O)[C@]2(C)[C@H]3CC[C@]4(C)C([C@H](C)[C@H]5CC(C)=C(C)C(=O)O5)=C[C@H](OC(C)=O)[C@@]4(O)[C@@H]3C[C@H]3O[C@]132"
-0.12

Check the records and state log10 IC50 for "CCN(C)C(=O)O[C@H]1C=CC(=O)[C@]2(C)[C@H]3CC[C@]4(C)C([C@H](C)[C@H]5CC(C)=C(C)C(=O)O5)=C[C@H](OC(C)=O)[C@@]4(O)[C@@H]3C[C@H]3O[C@]132"
0.25

Specify measured log10 IC50 for "C=CC(=O)O[C@H]1C=CC(=O)[C@]2(C)[C@H]3CC[C@]4(C)C([C@H](C)[C@H]5CC(C)=C(C)C(=O)O5)=C[C@H](OC(C)=O)[C@@]4(O)[C@@H]3C[C@H]3O[C@]132" .
-0.11

Return the recorded log10 IC50 value; entry: "CC(=O)O[C@H]1C=C([C@H](C)[C@H]2CC(C)=C(C)C(=O)O2)[C@@]2(C)CC[C@H]3[C@@H](C[C@H]4O[C@]45[C@@H](OC(=O)N4CCOCC4)C=CC(=O)[C@]35C)[C@]12O"
0.00

Determine from records and report log10 IC50 for "CC(=O)O[C@H]1C=C([C@H](C)[C@H]2CC(C)=C(C)C(=O)O2)[C@@]2(C)CC[C@H]3[C@@H](C[C@H]4O[C@]45[C@@H](OC(=O)/C=C/c4ccccc4)C=CC(=O)[C@]35C)[C@]12O"
-0.11

Respond only with log10 IC50 recorded for "CC(=O)O[C@H]1C=C([C@H](C)[C@H]2CC(C)=C(C)C(=O)O2)[C@@]2(C)CC[C@H]3[C@@H](C[C@H]4O[C@]45C(=O)C=CC(=O)[C@]35C)[C@]12O"
0.54

Using the record for "COC(=O)O[C@H]1C=CC(=O)[C@]2(C)[C@H]3CC[C@]4(C)C([C@H](C)[C@H]5CC(C)=C(C)C(=O)O5)=C[C@H](OC(C)=O)[C@@]4(O)[C@@H]3C[C@H]3O[C@]132" , state its measured log10 IC50.
0.25

Supply reported log10 IC50 belonging to this compound: "C=C(C)C(=O)O[C@H]1C=CC(=O)[C@]2(C)[C@H]3CC[C@]4(C)C([C@H](C)[C@H]5CC(C)=C(C)C(=O)O5)=C[C@H](OC(C)=O)[C@@]4(O)[C@@H]3C[C@H]3O[C@]132"
0.05

Entry "CC(=O)O[C@H]1C=C([C@H](C)[C@H]2CC(C)=C(C)C(=O)O2)[C@@]2(C)CC[C@H]3[C@@H](C[C@H]4O[C@]45[C@@H](OC(=O)/C=C/C(=O)N4CCCCC4)C=CC(=O)[C@]35C)[C@]12O" needs its log10 IC50 filled in; supply it.
-0.43

Entry "CC(=O)O[C@H]1C=C([C@H](C)[C@H]2CC(C)=C(C)C(=O)O2)[C@@]2(C)CC[C@H]3[C@@H](C[C@H]4O[C@]45[C@@H](OC(=O)/C=C/c4cccc(C(F)(F)F)c4)C=CC(=O)[C@]35C)[C@]12O" needs its log10 IC50 filled in; supply it.
-0.09

Quickly give me recorded log10 IC50 for "CC(=O)O[C@H]1C=C([C@H](C)[C@H]2CC(C)=C(C)C(=O)O2)[C@@]2(C)CC[C@H]3[C@@H](C[C@H]4O[C@]45[C@@H](OC(=O)/C=C/C(=O)N4CCCC4)C=CC(=O)[C@]35C)[C@]12O"
-0.60

For the compound "CC(=O)O[C@H]1C=C([C@H](C)[C@H]2CC(C)=C(C)C(=O)O2)[C@@]2(C)CC[C@H]3[C@@H](C[C@H]4O[C@]45[C@@H](OC(=O)N4CCCCC4)C=CC(=O)[C@]35C)[C@]12O" , give its reported log10 IC50.
0.14
